Values from patent US20260103465A1

molecular target: GSK3a (GST-full length GSK3a) (Homo sapiens); construct: GST-full length GSK3a [SignalChem G08-10G]; purchased SignalChem G08-10G; assay: GSK3a TR-FRET kinase inhibition assay; type: biochemical; settings: 1 mM ATP; Table 5; read-out: GSK3α TR-FRET 1 mM ATP Average IC50
Sequence (P49840 whole entry): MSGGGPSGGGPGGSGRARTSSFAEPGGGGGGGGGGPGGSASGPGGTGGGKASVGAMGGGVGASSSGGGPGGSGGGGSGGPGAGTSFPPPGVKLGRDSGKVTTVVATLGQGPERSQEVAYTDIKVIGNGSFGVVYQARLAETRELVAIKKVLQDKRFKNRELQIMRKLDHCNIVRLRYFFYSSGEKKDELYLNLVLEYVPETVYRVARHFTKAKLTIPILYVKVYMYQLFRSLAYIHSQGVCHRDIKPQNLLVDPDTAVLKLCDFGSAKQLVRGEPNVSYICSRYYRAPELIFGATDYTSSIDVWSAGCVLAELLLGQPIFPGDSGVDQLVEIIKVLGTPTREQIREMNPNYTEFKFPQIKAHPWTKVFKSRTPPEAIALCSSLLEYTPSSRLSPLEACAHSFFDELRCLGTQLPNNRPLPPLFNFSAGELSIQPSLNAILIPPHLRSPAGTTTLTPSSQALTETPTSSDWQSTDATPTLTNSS
Attribute: IC50

Completed entries (count: 3):
compound: CC(C)c1cnc2c(c1C#N)C(C)(c1ccccc1)C1=C(CC(C)(C)CC1=O)N2 (single isomer, unassigned) [622B]
IC50: 5 to 20 µM

compound: C=Cc1c(C(F)(F)F)cnc2c1C(C)(c1ccccc1)C1=C(CC(C)(C)CC1=O)N2 (single isomer, unassigned) [636B]
IC50: 5 to 20 µM

compound: CC1(C)CC(=O)C2=C(C1)Nc1ncc(I)c(Br)c1C2(C)c1ccccc1 (single isomer, unassigned) [657A]
IC50: 5 to 20 µM

Ask: // query IC50 value for entry CC1(C)CC2=C(C(=O)N1)C(C)(c1ccccc1)c1cc(C(F)(F)F)cnc1N2 (single isomer, unassigned) [625B]
Reply: 5 to 20 µM

Ask: Report IC50 for CC1(C)CC(=O)C2=C(C1)Nc1ncc(F)c(C#N)c1C2(C)c1cccc(F)c1 (single isomer, unassigned) [618B] please.
Reply: 0.1 to 1 µM

Ask: Fill in: IC50 of CCc1cnc2c(c1C#N)C(C)(c1ccccc1)C1=C(CC(C)(C)CC1=O)N2 (single isomer, unassigned) [608A] is ___
Reply: 1 to 5 µM

Ask: IC50 lookup needed for CN(c1cccc(C2(C)C3=C(CC(C)(C)CC3=O)Nc3ncccc32)c1)c1ncccn1 (single isomer, unassigned) [641B] , thanks.
Reply: 1 to 5 µM

----------
biological target: GSK3b (GST-full length GSK3b) (Homo sapiens); construct: GST-full length GSK3b: [SignalChem G08-9G]; purchased SignalChem G08-9G; assay: GSK3b TR-FRET kinase inhibition assay; format: biochemical; settings: 2 μM ATP; read-out: GSK3β TR-FRET 2 μM ATP GMean IC50
pIC50: −log10 of the molar value.
Below: a set of entries, each annotated with reported pIC50.

Use these answered entries as a reference point.
compound: CCC1(c2cccc(-c3cc(C)nn3C)c2)C2=C(CC(C)(C)CC2=O)Nc2ncc(F)cc21 (single isomer, unassigned) [Compound 1033B]
tested_system: GSK3b (GST-full length GSK3b) (Homo sapiens)
observation_type: pIC50
result_value: ≥ 7.00

compound: CCC1(c2cccc(-c3c(C)nn(C)c3C)c2)C2=C(CC(C)(C)CC2=O)Nc2ncccc21 (single isomer, unassigned) [Compound 150B]
tested_system: GSK3b (GST-full length GSK3b) (Homo sapiens)
observation_type: pIC50
result_value: ≥ 7.00

compound: CCC1(c2cccc(-c3ccnn3C)c2)C2=C(CC(C)(C)CC2=O)Nc2ncccc21 (single isomer, unassigned) [Compound 1019B]
tested_system: GSK3b (GST-full length GSK3b) (Homo sapiens)
observation_type: pIC50
result_value: < 5.30

compound: CCC1(c2ccccc2)C2=C(CC(C)(C)NC2=O)Nc2ncc(F)cc21 (single isomer, unassigned) [Compound 1007A]
tested_system: GSK3b (GST-full length GSK3b) (Homo sapiens)
observation_type: pIC50
result_value: < 5.30

compound: CCC1(c2cccc(-c3ccnn3C)c2)C2=C(CC(C)(C)CC2=O)Nc2ncc(F)cc21 (single isomer, unassigned) [Compound 1025A]
tested_system: GSK3b (GST-full length GSK3b) (Homo sapiens)
observation_type: pIC50
result_value: ≥ 7.00

compound: CCC1(c2ccccc2)C2=C(CC3(CCC3)CC2=O)Nc2ncc(F)cc21 (single isomer, unassigned) [Compound 1008B]
tested_system: GSK3b (GST-full length GSK3b) (Homo sapiens)
observation_type: pIC50
result_value: 5.30 to 6.00

Continue with the compound presented below.
Ask: # input compound: CCC1(c2ccccc2)C2=C(CC(C)(C)NC2=O)Nc2ncccc21 (single isomer, unassigned) [Compound 1002A] ; wanted: its pIC50
Reply: < 5.30

----------
target: GSK3b (GST-full length GSK3b) (Homo sapiens, UniProt P49841); construct: GST-full length GSK3b: [SignalChem G08-9G]; purchased SignalChem G08-9G; experiment: GSK3b TR-FRET kinase inhibition assay; type: biochemical; conditions: 1 mM ATP; Table 5; read-out: GSK3β TR-FRET 1 mM ATP Average IC50
Sequence (P49841 whole entry): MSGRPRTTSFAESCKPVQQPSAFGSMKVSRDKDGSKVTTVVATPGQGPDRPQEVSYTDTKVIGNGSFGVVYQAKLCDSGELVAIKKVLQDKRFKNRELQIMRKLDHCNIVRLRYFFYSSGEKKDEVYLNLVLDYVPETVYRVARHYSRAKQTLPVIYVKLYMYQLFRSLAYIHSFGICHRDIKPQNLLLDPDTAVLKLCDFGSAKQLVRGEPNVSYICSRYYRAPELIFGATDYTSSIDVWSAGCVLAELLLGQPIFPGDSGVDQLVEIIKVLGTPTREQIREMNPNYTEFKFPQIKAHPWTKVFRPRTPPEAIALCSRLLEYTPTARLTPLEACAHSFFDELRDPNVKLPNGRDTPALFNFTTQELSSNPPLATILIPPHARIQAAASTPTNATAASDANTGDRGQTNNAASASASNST
pIC50: −log10 of the molar value.
observation_type: pIC50

See these solved cases before continuing.
compound: COc1cnc2c(c1C#N)C(C)(c1ccccc1)C1=C(CC(C)(C)CC1=O)N2 (single isomer, unassigned) [612A]
pIC50: 4.70 to 5.30
--
compound: CC1(C)CC(=O)C2=C(C1)Nc1ncc(CF)c(C#N)c1C2(C)c1ccccc1 (single isomer, unassigned) [614A]
pIC50: 4.70 to 5.30
--
compound: CN1C(=O)C2=C(CC1(C)C)Nc1ncc(F)c(C#N)c1C2(C)c1ccccc1 (single isomer, unassigned) [615A]
pIC50: 5.30 to 6.00
--
compound: CC1(C)CC(=O)C2=C(C1)Nc1ncc(C(F)(F)F)c(C3CC3)c1C2(C)c1ccccc1 (single isomer, unassigned) [642B]
pIC50: 4.70 to 5.30
--
compound: COc1cnc2c(c1)C(C)(c1ccccc1)C1=C(CC(C)(C)CC1=O)N2 (single isomer, unassigned) [602B]
pIC50: 4.70 to 5.30

Ask: // query pIC50 value for entry CC1(C)CC2=C(C(=O)N1)C(C)(c1ccccc1)c1c(ncc(C(F)F)c1C#N)N2 (single isomer, unassigned) [628B]
Reply: 6.00 to 7.00

Ask: Fill in: pIC50 of CC1(C)CC2=C(C(=O)N1)C(C)(c1cccc(S(C)(=O)=O)c1)c1cc(C3CC3)cnc1N2 (single isomer, unassigned) [647B] is ___
Reply: 4.70 to 5.30

Ask: Reported pIC50 for CC1(C)CC(=O)C2=C(C1)Nc1ncc(C(F)(F)F)c(C3CC3)c1C2(C)c1ccccc1 (single isomer, unassigned) [642A] : what is it?
Reply: 5.30 to 6.00

Ask: What value of measured pIC50 is listed for Cc1cnc2c(c1C)C(C)(c1ccccc1)C1=C(CC(C)(C)CC1=O)N2 (single isomer, unassigned) [601B] ?
Reply: 4.70 to 5.30

Ask: Requested field: pIC50. Item: CC1(C)CC2=C(C(=O)N1)C(C)(c1cccc(S(C)(=O)=O)c1)c1cccnc1N2 (single isomer, unassigned) [630A]
Reply: 6.00 to 7.00

----------
Listing: Microsome Stability (Human) (DMPK_BIIB); Mean; in vitro t1/2 of selected compounds
Assay: Human liver microsomal stability
Format: in vitro ADME
Conditions: human liver microsomes; Table 4
Description: Stability of compound (5 μL of a 10 mM DMSO solution) in human liver microsomes was tested in duplicate by incubating compound at 1 μM for 60 minutes at 37° C. Compound level at 60 minutes was compared to level at 0 minutes, and percent remaining was calculated. Order by selecting Microsomal Stability in Prometheus, checking boxes for desired species. Assay Controls: microsomes with NADPH without compound-matrix interference. Microsomes plus compound without NADPH—non-enzymatic instability.
// note: answer is a bare numeric in min

compound: CCC1(c2ccccc2)C2=C(CC(C)(C)CC2=O)Nc2ncccc21 (single isomer, unassigned) [102 A]
result_value: 9.1
//
compound: CCC1(c2cccc(-c3c(F)cncc3OC)c2)C2=C(CC(C)(C)CC2=O)Nc2ncccc21 (single isomer, unassigned) [Compound 154B]
result_value: 6.6
//
compound: CCC1(c2cccc(-c3c(F)cncc3OC)c2)C2=C(CC(C)(C)CC2=O)Nc2ncc(F)cc21 (single isomer, unassigned) [Compound 161B]
result_value: 5.6
//
compound: CCC1(c2ccccc2)C2=C(CC3(CCC3)CC2=O)Nc2ncccc21 (single isomer, unassigned) [Compound 110A]
result_value: 5.4
//
compound: CCC1(c2cccc(-c3cncn3C(C)C)c2)C2=C(CC(C)(C)CC2=O)Nc2ncc(F)cc21 (single isomer, unassigned) [Compound 1038A]
result_value: 16
//
compound: CCC1(c2cccc(-c3ccnn3C)c2)C2=C(CC(C)(C)CC2=O)Nc2ncc(F)cc21 (single isomer, unassigned) [Compound 1025A]
result_value: 5.5

Ask: Dear colleague, I am looking for the recorded Microsome Stability (Human) (DMPK_BIIB); Mean; in vitro t1/2 of the following compound: CCC1(c2cccc(-c3cc(C)ncc3C)c2)C2=C(CC(C)(C)CC2=O)Nc2ncccc21 (single isomer, unassigned) [Compound 1027B]
Reply: 3.1

Ask: Using the record for CCC1(c2cccc(O)c2)C2=C(CC(C)(C)CC2=O)Nc2ncc(F)cc21 (single isomer, unassigned) [Compound 1010B] , report its Microsome Stability (Human) (DMPK_BIIB); Mean; in vitro t1/2.
Reply: 11

Ask: Give the measured Microsome Stability (Human) (DMPK_BIIB); Mean; in vitro t1/2 of CCC1(c2cccc(O)c2)C2=C(CC(C)(C)CC2=O)Nc2ncc(F)cc21 (single isomer, unassigned) [Compound 1010A] .
Reply: 6.1

Ask: What does the data say about its Microsome Stability (Human) (DMPK_BIIB); Mean; in vitro t1/2? Entry: CCC1(c2ccccc2)C2=C(Nc3ncccc31)C(F)C(C)(C)CC2=O (single isomer, unassigned) [Compound 1006C]
Reply: 37

Ask: Quick check: Microsome Stability (Human) (DMPK_BIIB); Mean; in vitro t1/2 of CCC1(c2ccccc2)C2=C(CC(C)(C)CC2=O)Nc2ncc(C(F)(F)F)cc21 (single isomer, unassigned) [Compound 133B] ?
Reply: 73

Ask: Reported Microsome Stability (Human) (DMPK_BIIB); Mean; in vitro t1/2 for CCC1(c2ccccc2)C2=C(CC3(CCC3)CC2=O)Nc2ncc(F)cc21 (single isomer, unassigned) [Compound 1008A] : what is it?
Reply: 19

Ask: Which measured Microsome Stability (Human) (DMPK_BIIB); Mean; in vitro t1/2 value corresponds to CCC1(c2cccc(-c3ccnc4c3CCCC4)c2)C2=C(CC(C)(C)CC2=O)Nc2ncccc21 (single isomer, unassigned) [Compound 1039B] ?
Reply: 4.6

Ask: Give the measured Microsome Stability (Human) (DMPK_BIIB); Mean; in vitro t1/2 of CCC1(c2cccc(-c3cn(C)nc3C)c2)C2=C(CC(C)(C)CC2=O)Nc2ncc(F)cc21 (single isomer, unassigned) [Compound 1032B] .
Reply: 6.4

Ask: # lookup: Microsome Stability (Human) (DMPK_BIIB); Mean; in vitro t1/2 of CCC1(c2cccc(-c3cn(C)nc3C)c2)C2=C(CC(C)(C)CC2=O)Nc2ncccc21 (single isomer, unassigned) [Compound 1023A]
Reply: 3.2

Ask: Using the record for CCC1(c2cccc(-c3c(C)nn(C)c3C)c2)C2=C(CC(C)(C)CC2=O)Nc2ncccc21 (single isomer, unassigned) [Compound 150B] , report its Microsome Stability (Human) (DMPK_BIIB); Mean; in vitro t1/2.
Reply: 2.7

Ask: Microsome Stability (Human) (DMPK_BIIB); Mean; in vitro t1/2 lookup needed for CCC1(c2cccc(-c3cc(C)nn3C)c2)C2=C(CC(C)(C)CC2=O)Nc2ncccc21 (single isomer, unassigned) [Compound 1024B] , thanks.
Reply: 4.3

Ask: Need Microsome Stability (Human) (DMPK_BIIB); Mean; in vitro t1/2, item CCC1(c2cccc(-c3ccnc4c3CCC4)c2)C2=C(CC(C)(C)CC2=O)Nc2ncccc21 (single isomer, unassigned) [Compound 1034B]
Reply: 4.1

Ask: Can you share its Microsome Stability (Human) (DMPK_BIIB); Mean; in vitro t1/2? I mean this compound: CCC1(c2cccc(-c3cncn3C(C)C)c2)C2=C(CC(C)(C)CC2=O)Nc2ncccc21 (single isomer, unassigned) [Compound 149A]
Reply: 9.9

Ask: # get_value(readout='Microsome Stability (Human) (DMPK_BIIB); Mean; in vitro t1/2', item= CCC1(c2cccc(-c3ccnn3C)c2)C2=C(CC(C)(C)CC2=O)Nc2ncccc21 (single isomer, unassigned) [Compound 1019A] )
Reply: 4.8
